ASSAY OVERVIEW: Test B: Cytotoxicity Assay (uninfected MT-4 cells)
Format: cell-based
TEST CONTEXT: human, same protocol as Test A, read-out: MT4-CC50
Reported values of CC50 at 5 days for individual entries
Number only, in µM; omit the unit.

                                   compound        property  unit_of_measurement  test_result
0  CN(C(=O)[C@@H]1Cc2cccc(c2)CCCc2[nH]c3ccc(=O)[nH]c3c2CC(=O)N1)c1ccc(Cl)cc1 [Example 30]  CC50 at 5 days                   µM         24.4

Fill blank: measured CC50 at 5 days of the compound COc1ccc(N(C)C(=O)[C@@H]2Cc3cccc(c3)CCSCc3[nH]c4ccccc4c3CC(=O)N2)cc1 [Example 5] is ____.
49.5

Now try COc1ccc(N(C)C(=O)[C@@H]2Cc3cc(F)cc(c3)/C=C\Cc3[nH]c4ccccc4c3CC(=O)N2)cc1 [Example 26] .
34.8

Follow-up item: COc1ccc(N(C)C(=O)[C@@H]2Cc3cccc(c3)CC=Cc3[nH]c4ccccc4c3CC(=O)N2)cc1 (stereo in doubt) [Example 11]
23.9

Here is the next compound: COc1ccc(N(C)C(=O)[C@@H]2Cc3cccc(c3)C/C=C/c3[nH]c4ccc(F)cc4c3CC(=O)N2)cc1 [Example 12]
31.8

Follow-up item: CN(C(=O)N1Cc2cc(F)cc(c2)CCCc2[nH]c3ccccc3c2CC(=O)N1)c1ccc(Cl)cc1 [Example 31]
21.7

Entry COc1ccc(N(C)C(=O)[C@@H]2Cc3cc(F)cc(c3)C/C=C/c3[nH]c4ccccc4c3CC(=O)N2)cc1 [Example 27] please
18.9

Now consider COc1ccc(N(C)C(=O)[C@@H]2Cc3cccc(c3)C/C=C\c3[nH]c4ccc(F)cc4c3CC(=O)N2)cc1 [Example 14] and answer again.
44.3

# repeat for COc1ccc(N(C)C(=O)[C@@H]2Cc3cccc(c3)CSc3[nH]c4ccccc4c3CC(=O)N2)cc1 [Example 20]
45.2

Param item: COc1ccc2[nH]c3c(c2n1)CC(=O)N[C@H](C(=O)N(C)c1ccc(Cl)cc1)Cc1cccc(c1)CC3 [Example 28]
18.3
